Below, each entry is listed with its recorded maximum absorption wavelength.
Assay: absorption spectrum (maximum absorption wavelength, molar extinction coefficient)
Assay type: physicochemical
Field format: number, assumed nm, no unit text.

COc1c(O)c2c(=O)cc(OC)c3c4c(OC)cc(=O)c5c(NCC6CCC(C(=O)NCCS(=O)(=O)O)CC6)c(NCC6CCC(C(=O)NCCS(=O)(=O)O)CC6)c6c(c(c1CC(C)=C6)c23)c54 (centres unmarked) [HC-13a-C2-SO3H]; 622
COc1c2c3c4c(c(NCCO)c(=O)c5c(O)cc(OC)c(c6c(OC)cc(NCCO)c(c1=O)c63)c54)C=C(C)C2C(C)=O (centres unmarked); 629
COc1c(O)c2c(=O)cc(OC)c3c4c(OC)cc(=O)c5c(NC(CS)C(=O)O)c(NC(CS)C(=O)O)c6c(c(c1C(C(C)=O)C(C)=C6)c23)c54 (centres unmarked) [HB-25a]; 625
COCCOCCOCCOCCOCCOCCOC(=O)C1CCCC(Nc2c(O)c3c(=O)cc(OC)c4c5c(OC)cc(=O)c6c(NC7CCCC(C(=O)OCCOCCOCCOCCOCCOCCOC)C7)c(OC)c7c(c(c2C=C(C)C7C(C)=O)c34)c65)C1 (centres unmarked) [HB-15b-PEG6]; 624

Let us move to another entry and its maximum absorption wavelength.
# maximum absorption wavelength lookup, item COc1c2c3c4c(c(NC(CCC(=O)O)C(=O)O)c(=O)c5c(O)cc(OC)c(c6c(OC)cc(NC(CCC(=O)O)C(=O)O)c(c1=O)c63)c54)C=C(C)C2C(C)=O (centres unmarked) [HB-28d]
620
